# Tested on: HCC44 (lung)
# test.name: CellTiterGlo Cell Proliferation Assay (2D), HCC44
# Assay type: cell-based
# protocol.conditions: Homo sapiens, 96 hours, 10 μM
endpoint.name: inhibition at 10 µM (%)
Give your result in % as a bare value.

# example entries with known answers
1) C=CC(=O)N1CCN2C(=O)c3cc(F)c(-c4ccc(F)c5sc(N)c(C#N)c45)c(Cl)c3OC[C@H]2C1
80.6
2) C=CC(=O)N1CCN2C(=O)c3cc(F)c(-c4ccc(F)c5sc(N)c(C#N)c45)c(Cl)c3OCC[C@H]2C1
64.3
3) C=CC(=O)N1CCN2C(=O)c3cc(F)c(-c4cccc5sc(N)c(C#N)c45)c(Cl)c3OCC[C@H]2C1
41

Consider the record given below.
Inquiry: Please report the recorded inhibition at 10 µM for C=CC(=O)N1CCN2C(=O)c3cc(Cl)c(-c4ccc(F)c5sc(N)nc45)c(Cl)c3OCC[C@H]2C1 (atropisomer, axis not shown) .
Reply text: 46.4

* * *

# tested.target: KRas G12C (Homo sapiens, UniProt P01116, G12C)
# Sequence (P01116 1-188 isoform P01116-2 G12C): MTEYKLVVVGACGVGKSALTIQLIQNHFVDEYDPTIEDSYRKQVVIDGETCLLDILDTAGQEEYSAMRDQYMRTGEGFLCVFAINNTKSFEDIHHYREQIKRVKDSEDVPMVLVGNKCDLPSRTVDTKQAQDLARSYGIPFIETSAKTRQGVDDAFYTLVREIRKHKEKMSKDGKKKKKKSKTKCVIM
# test.name: KRas G12C Probe Occupancy TR-FRET Assay
# Assay type: binding
# protocol.conditions: 60 minutes incubation of inhibitor with KRas G12C; n=4
endpoint.name: IC50

Inquiry: Param readout = IC50; param system = KRas G12C (Homo sapiens, UniProt P01116, G12C); param query = C=CC(=O)N1CCN2C(=O)c3cc(Cl)c(-c4ccc(F)c5sc(N)nc45)c(Cl)c3OCC[C@H]2C1 (atropisomer, axis not shown) ; response: value
Reply text: < 0.015 µM

* * *

# Test system: H2030 (lung)
# test.name: CellTiterGlo Cell Proliferation Assay (2D), H2030
# Assay type: cell-based
# protocol.conditions: Homo sapiens, NCI-H2030, 96 hours, 10 μM
endpoint.name: inhibition at 10 µM (%)
Give your result in % as a bare value.

1. C=CC(=O)N1CCN2C(=O)c3cc(F)c(-c4cccc5sc(N)c(C#N)c45)c(Cl)c3OCC[C@H]2C1 [Example 34]
41.1

Inquiry: Please report the recorded inhibition at 10 µM for C=CC(=O)N1CCN2C(=O)c3cc(F)c(-c4ccc(F)c5sc(N)c(C#N)c45)c(Cl)c3OC[C@H]2C1 [Example 36] .
Reply text: 55.8

Inquiry: Please report the recorded inhibition at 10 µM for C=CC(=O)N1CCN2C(=O)c3cc(F)c(-c4ccc(F)c5sc(N)c(C#N)c45)c(Cl)c3OCC[C@H]2C1 [Example 35] .
Reply text: 40.3

Inquiry: Please report the recorded inhibition at 10 µM for C=CC(=O)N1CCN2C(=O)c3cc(Cl)c(-c4ccc(F)c5sc(N)nc45)c(Cl)c3OCC[C@H]2C1 (atropisomer, axis not shown) [Example 1] .
Reply text: 32.9

* * *

# Tested on: LXFA-983L (lung)
# test.name: CellTiterGlo Cell Proliferation Assay (2D), LXFA-983L
# Format: cell-based
# protocol.conditions: 96 hours
pIC50: −log10 of the molar value.
// pIC50 lookup, one value per entry

# example entries with known answers
1. C=CC(=O)N1CCN2C(=O)c3cc(F)c(-c4cccc5sc(N)c(C#N)c45)c(Cl)c3OCC[C@H]2C1
< 5.00
2. C=CC(=O)N1CCN2C(=O)c3cc(Cl)c(-c4ccc(F)c5sc(N)nc45)c(Cl)c3OCC[C@H]2C1 (atropisomer, axis not shown)
5.44
3. C=CC(=O)N1CCN2C(=O)c3cc(F)c(-c4ccc(F)c5sc(N)c(C#N)c45)c(Cl)c3OC[C@H]2C1
< 5.00

Consider the record given below.
Inquiry: Please report the recorded pIC50 for C=CC(=O)N1CCN2C(=O)c3cc(F)c(-c4ccc(F)c5sc(N)c(C#N)c45)c(Cl)c3OCC[C@H]2C1 .
Reply text: < 5.00

Value source: patent US20230339968A1
